- measurement.target: rat ASIC3 (rASIC3) (Rattus norvegicus, UniProt O35240)
- Sequence (O35240 1-533): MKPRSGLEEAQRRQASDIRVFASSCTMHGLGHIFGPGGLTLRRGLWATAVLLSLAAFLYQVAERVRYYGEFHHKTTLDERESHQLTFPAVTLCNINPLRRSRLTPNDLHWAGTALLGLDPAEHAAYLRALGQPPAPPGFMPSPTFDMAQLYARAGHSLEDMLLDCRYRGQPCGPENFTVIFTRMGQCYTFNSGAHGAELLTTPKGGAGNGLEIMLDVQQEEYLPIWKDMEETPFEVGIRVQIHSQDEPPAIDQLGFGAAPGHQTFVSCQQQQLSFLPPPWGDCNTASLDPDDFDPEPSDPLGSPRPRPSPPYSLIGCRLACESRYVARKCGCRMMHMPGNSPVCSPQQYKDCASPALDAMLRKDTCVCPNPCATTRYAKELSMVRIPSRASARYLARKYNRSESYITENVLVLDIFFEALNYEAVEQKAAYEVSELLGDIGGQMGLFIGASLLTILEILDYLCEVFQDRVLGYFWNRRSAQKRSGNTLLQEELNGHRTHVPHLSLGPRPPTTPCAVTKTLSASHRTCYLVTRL
- assay.name: whole-cell patch clamp, HEK293, potentiation of pH5.5-evoked sustained current
- Assay type: cell-based
- condition.context: peptide applied in pH 7.4 resting solution, pH 5.5 pulse; positive modulator
pEC50: −log10 of the molar value. Ends that are not written are not given here.
property.name: pEC50

[[record]]
substance = "FRCCRF-NH2 (cysteine pairing not given here)"
property_name = "pEC50"
result_value = 5.33

[[record]]
substance = "FRCRCF-NH2 (cysteine pairing not given here)"
property_name = "pEC50"
result_value = 5.36

